Target: NR2F6 (Homo sapiens, UniProt P10588)
Construct: expressed in transfected cells; also transient transfection
Sequence (P10588 whole entry): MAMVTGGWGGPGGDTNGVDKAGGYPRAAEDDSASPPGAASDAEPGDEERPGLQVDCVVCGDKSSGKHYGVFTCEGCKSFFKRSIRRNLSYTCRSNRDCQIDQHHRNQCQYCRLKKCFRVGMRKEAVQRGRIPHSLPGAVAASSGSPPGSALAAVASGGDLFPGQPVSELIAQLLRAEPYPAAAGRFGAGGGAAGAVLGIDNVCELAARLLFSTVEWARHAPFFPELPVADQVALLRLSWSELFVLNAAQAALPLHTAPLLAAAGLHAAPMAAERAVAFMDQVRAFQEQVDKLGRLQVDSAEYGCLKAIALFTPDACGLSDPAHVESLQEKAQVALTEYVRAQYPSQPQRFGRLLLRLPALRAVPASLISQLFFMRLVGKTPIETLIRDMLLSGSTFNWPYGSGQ
Assay: NR2F6 agonist screening, Firefly signal cmpd/DMSO
Assay type: cell-based
Settings: 2 uM; clone F4
Metric name: Firefly F4, cmpd/DMSO (mean)
Reply briefly: the number, and no unit.

Reported Firefly F4, cmpd/DMSO (mean) for COc1ccc2nc(C(F)(F)F)c(C#N)c(NCc3ccc(Cl)cc3)c2c1 : what is it?
0.5

Item O=c1cccc2n1CC1CC2CN(c2nc(NCCC3=CCCCC3)nc(N3CCOCC3)n2)C1 (stereo not drawn) has what recorded Firefly F4, cmpd/DMSO (mean)?
1.1

Tell me the measured Firefly F4, cmpd/DMSO (mean) of COC(=O)c1[nH]c2c(c(C(F)(F)F)nc3ccc(OC)cc32)c1N , please.
0.9

Give its Firefly F4, cmpd/DMSO (mean) value. Item: CCOC(=O)c1cnc2cc(C)c(C)cc2c1NCCCN(C)C
1.6

Any idea what Firefly F4, cmpd/DMSO (mean) was measured for N#Cc1c(C(F)(F)F)nc2ccc(Cl)cc2c1NC1CC1 ?
0.9

Can you share its Firefly F4, cmpd/DMSO (mean)? I mean this compound: O=c1cccc2n1CCN(c1nc(NCC3CCCO3)nc(N3CCCC3)n1)C2 (stereo not drawn)
1.6

Recorded Firefly F4, cmpd/DMSO (mean) of N#Cc1c(C(F)(F)F)nc2ccc(Cl)cc2c1N1CCOCC1 , please.
1.3

Item under review: COc1ccc2nc(C(F)(F)F)c(C#N)c(N3CCN(C)CC3)c2c1 . Reported Firefly F4, cmpd/DMSO (mean)?
1.0

Give the measured Firefly F4, cmpd/DMSO (mean) of CCOC(=O)c1cnc2ccc(C)cc2c1NCCCN(C)C .
1.7

Which Firefly F4, cmpd/DMSO (mean) is reported for this compound? COc1ccc(-c2cc3n(n2)C(N)=C(C#N)C(c2c[nH]c4ccccc24)(C(F)(F)F)N3)cc1OC (stereo not drawn)
0.8

Would you kindly share the measured Firefly F4, cmpd/DMSO (mean) for CCOC(=O)c1cnc2c(Cl)cc(Cl)cc2c1NCCCN(C)C ?
1.9

Data request, read-out Firefly F4, cmpd/DMSO (mean), for O=c1cccc2n1CC1CC2CN(c2nc(NCCC3=CCCCC3)nc(N3CCCC3)n2)C1 (stereo not drawn)
0.8

So what does the record say about Firefly F4, cmpd/DMSO (mean) for COc1ccc(-c2cc3n(n2)C(N)=C(C#N)C(c2ccc(N4CCOCC4)cc2)(C(F)(F)F)N3)cc1OC (stereo not drawn) ?
0.8

Which Firefly F4, cmpd/DMSO (mean) value is on record for COC(=O)CNc1c(C#N)c(C(F)(F)F)nc2ccc(OC)cc12 ?
0.6

Item under review: CC1CCN(c2nc(N3CCC(C)CC3)nc(N3CCn4c(cccc4=O)C3)n2)CC1 . Reported Firefly F4, cmpd/DMSO (mean)?
1.3

Suppose we examine the compound Cc1cc(-c2ccccc2)nc(Nc2nc(-c3ccccc3)c(CC(=O)O)s2)n1 ; what Firefly F4, cmpd/DMSO (mean) value has been reported?
1.5

Entry CCCNc1nc(N2CCOCC2)nc(N2CC3CC(C2)c2cccc(=O)n2C3)n1 (stereo not drawn) : reported Firefly F4, cmpd/DMSO (mean) = ?
1.3

Suppose we examine the compound N#Cc1c(C(F)(F)F)nc2ccc(Oc3ccccc3)cc2c1NCCc1ccc(Cl)cc1 ; what Firefly F4, cmpd/DMSO (mean) value has been reported?
0.6

Find the recorded Firefly F4, cmpd/DMSO (mean) belonging to Cc1cc(C)c2ncc(C(=O)N(C)C)c(NCCCN(C)C)c2c1 and report it.
0.8

Given the entry Cc1cc(C)nc(Nc2nc(-c3ccccc3)c(CC(=O)O)s2)n1 , report its measured Firefly F4, cmpd/DMSO (mean).
0.9

Look up Firefly F4, cmpd/DMSO (mean): CCCCCCNc1nc(OC)nc(N2CCn3c(cccc3=O)C2)n1
0.8

I am curious: what Firefly F4, cmpd/DMSO (mean) value has been reported for O=c1c(Cl)c(Cl)cnn1-c1ccccc1 ?
3.2

What measured Firefly F4, cmpd/DMSO (mean) goes with COc1nc(NCCC2=CCCCC2)nc(N2CC3CC(C2)c2cccc(=O)n2C3)n1 (stereo not drawn) ?
1.2

Look up Firefly F4, cmpd/DMSO (mean): O=c1cccc2n1CC1CC2CN(c2nc(N3CCOCC3)nc(N3CCOCC3)n2)C1 (stereo not drawn)
0.8

Look up Firefly F4, cmpd/DMSO (mean): COc1ccc2nc(C(F)(F)F)c(C#N)c(NCCOc3ccc(Cl)cc3)c2c1
0.8

State the recorded Firefly F4, cmpd/DMSO (mean) for this entry: CCOC(=O)c1cnc2c(Cl)cc(Cl)cc2c1NCCCN1CCCC1
0.7

What does the record list as Firefly F4, cmpd/DMSO (mean) for CCOC(=O)Cc1sc(Nc2nc(C)cc(C)n2)nc1-c1ccccc1 ?
1.2

Which Firefly F4, cmpd/DMSO (mean) is listed for O=c1cccc2n1CC1CC2CN(c2nc(Cl)nc(NCCN3CCOCC3)n2)C1 (stereo not drawn) ?
1.0

Query: Firefly F4, cmpd/DMSO (mean); subject: N#CC1=C(N)n2nc(-c3ccccc3)cc2NC1(c1ccc(N2CCOCC2)cc1)C(F)(F)F (stereo not drawn)
0.8

What does the data say about its Firefly F4, cmpd/DMSO (mean)? Entry: Cc1cc(C)c2ncc(C(=O)O)c(NCCCN(C)C)c2c1
1.0

Can you look up the measured Firefly F4, cmpd/DMSO (mean) of CNC(=O)c1cnc2c(C)cc(C)cc2c1NCCCN(C)C for me?
1.4

Fill in: Firefly F4, cmpd/DMSO (mean) of Cc1cc(C)c2ncc(C(=O)N3CCCC3)c(NCCCN(C)C)c2c1 is ___
1.8

# Firefly F4, cmpd/DMSO (mean) lookup, item Cc1cc(C)c2ncc(C(=O)OC(C)C)c(NCCCN(C)C)c2c1
1.3

// query Firefly F4, cmpd/DMSO (mean) value for entry CCOC(=O)c1cnc2c(Cl)cc(Cl)cc2c1NCCCN1CCCCC1
1.0

What value of Firefly F4, cmpd/DMSO (mean) has been reported for the following compound? N#Cc1c(C(F)(F)F)nc2ccc(Oc3ccccc3)cc2c1N1CCNCC1
0.6

Report Firefly F4, cmpd/DMSO (mean) for COc1ccc2nc(C(F)(F)F)c(C#N)c(NCCc3ccc(Cl)cc3)c2c1 please.
0.8
